The measurements presented in this section are drawn from paper PMC12206033.

Quick reference: pIC50 of the listed items.
# Tested on: hTRPV3 (Homo sapiens)
# Construct: expressed in transfected cells; host or cells: HEK293T
# Sequence (Q8NET8 whole entry): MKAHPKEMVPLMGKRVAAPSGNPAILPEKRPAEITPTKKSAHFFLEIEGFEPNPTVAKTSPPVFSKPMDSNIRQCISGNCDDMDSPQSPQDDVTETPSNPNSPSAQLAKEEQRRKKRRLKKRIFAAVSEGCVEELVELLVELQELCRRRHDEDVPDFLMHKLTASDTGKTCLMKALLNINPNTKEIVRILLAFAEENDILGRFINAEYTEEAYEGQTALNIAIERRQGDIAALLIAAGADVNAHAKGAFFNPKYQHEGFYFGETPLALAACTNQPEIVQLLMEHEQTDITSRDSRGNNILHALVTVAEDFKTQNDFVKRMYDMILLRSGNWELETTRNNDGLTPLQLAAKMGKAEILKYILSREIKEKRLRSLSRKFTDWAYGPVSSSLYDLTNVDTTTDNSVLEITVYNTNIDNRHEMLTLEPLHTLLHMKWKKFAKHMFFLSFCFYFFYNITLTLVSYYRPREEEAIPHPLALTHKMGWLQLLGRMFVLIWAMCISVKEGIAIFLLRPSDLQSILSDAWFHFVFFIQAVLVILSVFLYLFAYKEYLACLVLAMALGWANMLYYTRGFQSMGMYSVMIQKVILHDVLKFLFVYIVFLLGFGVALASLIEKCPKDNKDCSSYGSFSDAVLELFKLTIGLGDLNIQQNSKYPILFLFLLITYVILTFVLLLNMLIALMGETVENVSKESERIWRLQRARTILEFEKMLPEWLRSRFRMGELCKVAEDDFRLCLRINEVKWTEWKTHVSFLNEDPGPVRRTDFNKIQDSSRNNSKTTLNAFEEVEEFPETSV
# Assay overview: whole-cell patch-clamp of hTRPV3 currents in HEK293T cells activated by 2-APB
# Assay type: cell-based
# Conditions: evoked by 2-APB 50 μM; outward currents at +80 mV; HEK293T; Fig. 3J, n = 5-7; read-out: IC50, inhibition of whole-cell hTRPV3 currents
pIC50: −log10 of the molar value.
Reported endpoint: pIC50

INSERT INTO results (compound, tested_on, assay_value) VALUES
  ('COC(=O)[C@@H](Cc1ccc(O)c(O)c1)OC(=O)/C=C/c1ccc(O)c(O)c1 [MROSA, methyl rosmarinate]', 'hTRPV3 (Homo sapiens)', 3.80),
  ('O=C(/C=C/c1ccc(O)c(O)c1)NCCc1ccc(O)c(O)c1', 'hTRPV3 (Homo sapiens)', 4.17);

====

# Tested on: hTRPV3 (Homo sapiens)
# Construct: expressed in transfected cells; host or cells: HEK293T
# Assay overview: whole-cell patch-clamp of hTRPV3 currents in HEK293T cells activated by 2-APB
# Assay type: cell-based
Reported endpoint: IC50 (µM)

INSERT INTO results (test_smiles, readout_units, assay_value) VALUES
  ('O=C(/C=C/c1ccc(O)c(O)c1)O[C@H](Cc1ccc(O)c(O)c1)C(=O)O', 'µM', 12.4);

====

# Assay overview: CCK-8 cell viability assay
# Type: cell-based
# Conditions: human, HEK293T cells expressing hTRPV3, Car 300 μM for 1 h, read-out: cell viability rate, Car alone
Reported endpoint: viability at 1 h, 300 μM (%)

INSERT INTO results (molecule, readout_units, assay_value) VALUES
  ('Cc1ccc(C(C)C)cc1O [Car, carvacrol, reference compound]', '%', 72);
